Test: MTT compound toxicity assay on MDBK cells
Type: cell-based, Bovine
Details: bovine, BVDV (MDBK), concentration reducing MTT values (570 nm) by 50% relative to DMSO
assay_readout: CC50 at 72 h

Query: For the compound shown here, OC[C@@H]1[C@@H](O)[C@H](O)[C@@H](O)CN1CCCCCC1(O)CCCCC1 [OSL-95II] , give the reported CC50 at 72 h.
Response: > 500 µM

---

Tested on: MDBK cells
Assay: MTT compound toxicity assay on MDBK cells
Format: cell-based, Bovine
Conditions: BVDV (MDBK); concentration reducing MTT values (570 nm) by 50% relative to DMSO; 72 hours
Overview of recorded CC50 for various compounds
// note: answer is a bare numeric in µM

compound	unit_spec	numeric_value
OC[C@@H]1[C@@H](O)[C@H](O)[C@@H](O)CN1CCCCC1CCCCC1	µM	300

Below: the item to evaluate.
Query: For the compound shown here, CCCCCCCCCN1C[C@H](O)[C@@H](O)[C@H](O)[C@H]1CO [NNDNJ, N-nonyl-DNJ, reference compound] , give the reported CC50.
Response: 150

---

Tested on: BVDV
Test: BVDV single cycle virus yield reduction assay in MDBK cells
Assay type: cell-based, Bovine Viral Diarrhea virus (NADL strain)
Conditions: BVDV (MDBK); concentration reducing plaque number by 50% relative to DMSO; read-out: IC50
assay_readout: IC50 (µM)
// note: answer is a bare numeric in µM

Query: For the molecule shown here, OC[C@@H]1[C@@H](O)[C@H](O)[C@@H](O)CN1CCCC1CCCCC1 , give the reported IC50.
Response: 5

---

Overview of recorded CC50 at 72 h for various compounds
Assay: MTT compound toxicity assay on MDBK cells
Format: cell-based, Bovine
Settings: bovine, MDBK cells, MTT, text to FIG. 2B / 4B

structure_notation	CC50 at 72 h
OC[C@@H]1[C@@H](O)[C@H](O)[C@@H](O)CN1CCCCC1(O)CCCCC1	> 300 µM

Query: For the compound shown here, OC[C@@H]1[C@@H](O)[C@H](O)[C@@H](O)CN1CCCCCCC1(O)CCCCC1 , give the reported CC50 at 72 h.
Response: > 300 µM

---

Test system: DV serotype 2
Test: DV yield reduction assay in BHK cells
Assay type: cell-based, Dengue virus (DV) serotype 2
Conditions: Dengue virus, BHK, 72 h, read-out: IC50 against DV
assay_readout: IC50 (µM)
// note: answer is a bare numeric in µM

Query: For the compound shown here, O[C@H]1[C@H](O)[C@@H](O)CN2CC[C@H](O)[C@H]12 [CAST, Castanospermine, reference compound] , give the reported IC50.
Response: 6

---

Overview of recorded CC50 at 72 h for various molecules
Test: MTT compound toxicity assay on BHK cells
Type: cell-based
Settings: hamster; WNV (BHK); MTT, 50% reduction relative to DMSO

molecule	assay_readout	result
O[C@H]1[C@H](O)[C@@H](O)CN2CC[C@H](O)[C@H]12 [CAST, Castanospermine, reference compound]	CC50 at 72 h	> 100 µM

Query: For the molecule shown here, OC[C@@H]1[C@@H](O)[C@H](O)[C@@H](O)CN1CCCCCC1(O)CCCCC1 [OSL-95II] , give the reported CC50 at 72 h.
Response: > 100 µM
